A collection of compounds and their measured Ki
target: HGFR (Homo sapiens, UniProt P08581); construct: purchased Upstate 14-526; experiment: HGFR continuous-coupled spectrophotometric assay (tyrosine kinase activity on Met-2 substrate peptide); format: biochemical; conditions: HGFR 50 nM, Met-2 peptide 0.5 mM, ATP 300 μM, 37° C., absorbance 340 nm; read-out: Ki
Sequence (P08581 974-1390 limits assumed): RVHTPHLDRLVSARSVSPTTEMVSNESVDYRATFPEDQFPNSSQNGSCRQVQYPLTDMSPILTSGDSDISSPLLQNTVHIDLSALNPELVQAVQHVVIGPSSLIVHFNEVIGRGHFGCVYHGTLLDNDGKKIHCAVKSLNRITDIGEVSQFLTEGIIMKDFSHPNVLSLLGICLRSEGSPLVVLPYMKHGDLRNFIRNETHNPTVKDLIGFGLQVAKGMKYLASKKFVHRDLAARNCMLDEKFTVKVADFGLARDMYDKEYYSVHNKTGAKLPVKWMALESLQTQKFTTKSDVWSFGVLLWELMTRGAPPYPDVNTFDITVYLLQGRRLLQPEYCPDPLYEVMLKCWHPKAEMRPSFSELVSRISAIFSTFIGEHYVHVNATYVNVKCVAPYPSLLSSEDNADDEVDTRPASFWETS

- compound: "OCc1cccc(-c2cnc3nnn(Cc4ccc5ncccc5c4)c3n2)c1"
  Ki / nM: 4
- compound: "C[C@H]1COCCN1c1cnc2nnn(Cc3ccc4ncccc4c3)c2n1"
  Ki / nM: 138
- compound: "Brc1cnc2nnn(Cc3ccc4c(c3)CCO4)c2n1"
  Ki / nM: 36
- compound: "c1cnc2ccc(Cn3nnc4ncc(-c5cnn([C@H]6CCOC6)c5)nc43)cc2c1"
  Ki / nM: 13
- compound: "CCc1noc(C2CCN(c3cnc4nnn(Cc5ccc6ncccc6c5)c4n3)CC2)n1"
  Ki / nM: 24
- compound: "CC1(CO)CCN(c2cnc3nnn(Cc4ccc5ncccc5c4)c3n2)CC1"
  Ki / nM: 36
- compound: "COc1cccc(-c2cnc3nnn(Cc4ccc5ncccc5c4)c3n2)c1"
  Ki / nM: 3
- compound: "c1cnc2ccc(Cn3nnc4ncc(NC5CCOC5)nc43)cc2c1 (stereo not drawn) [Example 146]"
  Ki / nM: 7
- compound: "O[C@@H]1COC[C@H]1Nc1cnc2nnn(Cc3ccc4ncccc4c3)c2n1"
  Ki / nM: 54
